What Kd was measured for each of the following?
# assayed_target: T1, ErbB1 extracellular domain (recombinant, soluble) (UniProt P00533 25-645, limits assumed)
# T1 construct: extracellular domain; also called erbB1 ectodomain; EGFr
# test_method_notes: SPR (Biacore 3000), peptide injected over immobilized receptor extracellular domain
Bridge positions count the residues as written; N and C are the ends. Ends that are not written are not given here.
Write the value in nM as a bare number.

# input Entry under review: YCLVWKYADAGCY (disulfide 2-12 (inferred)) [B1-S22-ALG (derived from erbB1)] . Reported Kd?
# output 449

# input Entry under review: YCFIFKYADPDCY (disulfide 2-12 (inferred)) [B4-S22-AFD (derived from erbB4)] . Reported Kd?
# output 583

# input Entry under review: YCPIWKFPDEECY (disulfide 2-12 (inferred)) [B2-S22-APE (derived from erbB2)] . Reported Kd?
# output 210

# input Entry under review: YCFPDEEGACY (disulfide 2-10 (inferred)) [B2-S22-AFA (derived from erbB2)] . Reported Kd?
# output 407

# input Entry under review: YCPIYKYPDVQCY (disulfide 2-12 (inferred)) [B3-S22-APQ (derived from erbB3)] . Reported Kd?
# output 472
